- PROTOCOL_SUMMARY: Intrinsic clearance in rat liver microsomes (substrate depletion), predicted hepatic clearance
- Assay type: in vitro ADME
- CONDITIONS: pH 7.4; rat liver microsomes
Classification by CLint scaled at 1 µM | ranges: bin A (below 400 mL/min/kg), bin B (400 mL/min/kg to below 600 mL/min/kg), bin C (600 mL/min/kg or more)

Task: # classify by CLint scaled at 1 µM band: Cc1nc2sc3c(NC4CC(F)(F)C4)nncc3c2c(C)c1Cl.Cl [Compound 22k]
Output: bin C

Task: Any idea which band Cc1c(Cl)cnc2sc3c(NC4CC4)ncnc3c12 [Compound 15g] is in?
Output: bin C

Task: Where would Cc1nc2sc3c(NC4CC4)ncnc3c2c(C)c1Cl.Cl [Compound 13l] land among the classes by reported CLint scaled at 1 µM?
Output: bin B

Task: # bin label for Cc1c(Cl)cnc2sc3c(N4CC5(COC5)C4)ncnc3c12 [Compound 15h]
Output: bin A

Task: Please report the category associated with Cc1nc2oc3c(NC4CC4)ncnc3c2c(C)c1Cl.Cl [Compound 14o] , nothing else.
Output: bin A

Task: Place this molecule in its band: Cc1c(Cl)cnc2sc3c(NC4CC(c5ccncc5)C4)ncnc3c12 (stereo not shown) [Compound 15e]
Output: bin A

Task: Place this molecule in its band: Cc1nc2oc3c(NC4CC4(C)C)ncnc3c2c(C)c1Cl.Cl (stereo not shown) [Compound 14p]
Output: bin B

Task: Please indicate the class for Cc1c(Cl)cnc2sc3c(N4CC(C#N)C4)ncnc3c12 [Compound 15f] based on its CLint scaled at 1 µM.
Output: bin C

Task: State the class of the molecule shown: Cc1nc2sc3c(NC4CC4)nncc3c2c(C)c1Cl.Cl [Compound 22i]
Output: bin B

Task: Returns: class label. Input: Cc1nc2sc3c(NC4CCC4)nncc3c2c(C)c1Cl.Cl [Compound 22j]
Output: bin C

----------
- PROTOCOL_SUMMARY: Intrinsic clearance in human liver microsomes (substrate depletion), predicted hepatic clearance
- Type: in vitro ADME
- CONDITIONS: predicted from human microsomal CLint
Would you kindly list CLhep, human (predicted hepatic clearance) for each of these compounds?
State the value, then name its unit.

Reported CLhep, human (predicted hepatic clearance) for Cc1nc2sc3c(NC4CC(F)(F)C4)nncc3c2c(C)c1Cl.Cl [Compound 22k] was 19 mL/min/kg

Measured CLhep, human (predicted hepatic clearance), Cc1nc2oc3c(NC4CC4(C)C)ncnc3c2c(C)c1Cl.Cl (centres unmarked) [Compound 14p] : 19 mL/min/kg

Cc1nc2sc3c(NC4CC4)ncnc3c2c(C)c1Cl.Cl [Compound 13l] yielded CLhep, human (predicted hepatic clearance) of 17 mL/min/kg

So, Cc1c(Cl)cnc2sc3c(N4CC(C#N)C4)ncnc3c12 [Compound 15f] ? Its CLhep, human (predicted hepatic clearance) was 19 mL/min/kg

Given item Cc1nc2sc3c(NC4CCC4)nncc3c2c(C)c1Cl.Cl [Compound 22j] , the value recorded as its CLhep, human (predicted hepatic clearance) is 15 mL/min/kg

----------
pIC50: −log10 of the molar value.
Please go through the items and note down their pIC50.

So the reported pIC50 for Cc1nc2sc3c(NC4CC(F)(F)C4)nncc3c2c(C)c1Cl.Cl [Compound 22k] , on UniProt P08684, turned out to be < 4.52

The value of pIC50 recorded for Cc1nc2sc3c(NC4CC4)nncc3c2c(C)c1Cl.Cl [Compound 22i] when tested on UniProt P08684 reads 4.54

Record Cc1nc2oc3c(NC4CC4(C)C)ncnc3c2c(C)c1Cl.Cl (centres unmarked) [Compound 14p] has UniProt P08684 pIC50 equal to < 4.52

Entry Cc1c(Cl)cnc2sc3c(NC4CC(c5ccncc5)C4)ncnc3c12 (centres unmarked) [Compound 15e] under UniProt P08684 had pIC50 of < 4.52

Hey, UniProt P08684 data for Cc1nc2oc3c(NC4CC4)ncnc3c2c(C)c1Cl.Cl [Compound 14o] : pIC50 came out at ≤ 4.52

----------
- PROTOCOL_SUMMARY: Intrinsic clearance in rat liver microsomes (substrate depletion), predicted hepatic clearance
- Type: in vitro ADME
- CONDITIONS: predicted from rat microsomal CLint
VALUE_KIND: CLhep, rat (predicted hepatic clearance) (mL/min/kg)
Only the number, expressed in mL/min/kg, is required.

Lab note: measured CLhep, rat (predicted hepatic clearance) of Cc1nc2sc3c(NC4CC(F)(F)C4)nncc3c2c(C)c1Cl.Cl [Compound 22k] was 67

Lookup result for Cc1c(Cl)cnc2sc3c(N4CC(C#N)C4)ncnc3c12 [Compound 15f] ; measured CLhep, rat (predicted hepatic clearance): 63

Query Cc1nc2sc3c(NC4CC4)ncnc3c2c(C)c1Cl.Cl [Compound 13l] yields CLhep, rat (predicted hepatic clearance) of 60

// CLhep, rat (predicted hepatic clearance) value for Cc1nc2oc3c(NC4CC4(C)C)ncnc3c2c(C)c1Cl.Cl (stereo not shown) [Compound 14p] : 61

For this compound ( Cc1nc2sc3c(NC4CC4)nncc3c2c(C)c1Cl.Cl [Compound 22i] ), measured CLhep, rat (predicted hepatic clearance) is 60

Record summary for Cc1c(Cl)cnc2sc3c(NC4CC4)ncnc3c12 [Compound 15g] : reported CLhep, rat (predicted hepatic clearance) = 64

The recorded CLhep, rat (predicted hepatic clearance) for Cc1nc2sc3c(NC4CCC4)nncc3c2c(C)c1Cl.Cl [Compound 22j] is 66

Reported CLhep, rat (predicted hepatic clearance) for Cc1c(Cl)cnc2sc3c(N4CC5(COC5)C4)ncnc3c12 [Compound 15h] was 58

The recorded CLhep, rat (predicted hepatic clearance) for Cc1nc2oc3c(NC4CC4)ncnc3c2c(C)c1Cl.Cl [Compound 14o] is 50

CLhep, rat (predicted hepatic clearance) measured on Cc1c(Cl)cnc2sc3c(NC4CC(c5ccncc5)C4)ncnc3c12 (stereo not shown) [Compound 15e] = 57

----------
- TARGET_ENTITY: CYP 3A4 (Homo sapiens)
- Sequence (P08684 whole entry): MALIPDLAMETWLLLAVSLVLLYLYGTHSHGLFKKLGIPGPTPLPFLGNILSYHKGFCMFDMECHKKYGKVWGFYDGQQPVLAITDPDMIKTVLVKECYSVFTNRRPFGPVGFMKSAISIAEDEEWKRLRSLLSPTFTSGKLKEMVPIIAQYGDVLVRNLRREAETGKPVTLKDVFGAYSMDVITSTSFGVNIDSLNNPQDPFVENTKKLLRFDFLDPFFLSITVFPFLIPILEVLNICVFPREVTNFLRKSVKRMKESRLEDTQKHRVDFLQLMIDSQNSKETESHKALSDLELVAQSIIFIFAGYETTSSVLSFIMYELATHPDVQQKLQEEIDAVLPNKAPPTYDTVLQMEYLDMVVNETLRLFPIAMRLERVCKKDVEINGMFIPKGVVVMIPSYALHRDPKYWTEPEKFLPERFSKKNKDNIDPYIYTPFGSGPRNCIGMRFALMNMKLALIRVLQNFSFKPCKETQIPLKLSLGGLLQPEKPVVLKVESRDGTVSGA
- PROTOCOL_SUMMARY: CYP450 inhibition in pooled human liver microsomes, CYP-specific probe substrates
- Assay type: in vitro ADME
- CONDITIONS: pooled HLM, NADPH, CYP-specific probe substrate
Provide the recorded IC50 for the entries that follow.
Numbers only here, please. The scale is µM.

What the record says about Cc1nc2sc3c(NC4CC4)ncnc3c2c(C)c1Cl.Cl [Compound 13l] : IC50 is 15.8

Consider Cc1c(Cl)cnc2sc3c(NC4CC4)ncnc3c12 [Compound 15g] . Its measured IC50 is 24.3

----------
Hi there, I'd appreciate the recorded pEC50 for every entry that follows.
- TARGET_ENTITY: human M4 (hM4) (Homo sapiens, UniProt P08173)
- Sequence (P08173 1-479): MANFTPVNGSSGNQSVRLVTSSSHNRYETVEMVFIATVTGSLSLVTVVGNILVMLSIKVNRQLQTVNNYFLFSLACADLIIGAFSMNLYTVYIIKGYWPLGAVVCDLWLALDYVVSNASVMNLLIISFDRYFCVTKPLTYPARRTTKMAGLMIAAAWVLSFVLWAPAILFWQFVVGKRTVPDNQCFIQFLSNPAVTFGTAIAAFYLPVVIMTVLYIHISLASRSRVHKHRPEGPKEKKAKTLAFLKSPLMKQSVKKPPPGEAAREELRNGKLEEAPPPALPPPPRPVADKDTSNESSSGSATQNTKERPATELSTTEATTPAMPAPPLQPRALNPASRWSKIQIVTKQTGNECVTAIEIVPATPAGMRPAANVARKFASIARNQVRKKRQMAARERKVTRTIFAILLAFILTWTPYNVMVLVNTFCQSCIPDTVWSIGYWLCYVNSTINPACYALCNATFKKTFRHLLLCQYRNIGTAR
- PROTOCOL_SUMMARY: Calcium mobilization assay, hM4/Gqi5-CHO cells, with EC20 acetylcholine (PAM)
- CONDITIONS: read-out: hM4 EC50; hM4/Gqi5-CHO cells, calcium mobilization, EC20 fixed concentration of acetylcholine
When answering, recall that pEC50 equals minus log10 of the concentration in mol/L, and write that number alone.

Just so you know, measured pEC50 for Cc1nc2sc3c(N4CC5CC5C4)nncc3c2c(C)c1Cl.Cl (stereo not shown) [Compound 22c] came out at 6.29

Reported pEC50 ( Cc1c(Cl)cnc2sc3c(NC4CC4)ncnc3c12 [Compound 15g] ) = 7.60

Per the records, this compound ( Cc1ncc(CNc2ncnc3c2sc2ncc(Cl)c(C)c23)cn1.Cl [Compound 15c] ) has pEC50 equal to 6.35

The compound identified as Cc1nc2sc3c(NC4CC4)nncc3c2c(C)c1Cl.Cl [Compound 22i] registered its pEC50 at 7.19

For Cc1c(Cl)cnc2sc3c(NC4(C)CC4)ncnc3c12 [Compound 15b] the compound record lists pEC50 as 6.40

----------
What fraction unbound at 6 h, 5 µM was measured for each of the following?
- PROTOCOL_SUMMARY: Binding in plasma from human, equilibrium dialysis
- Assay type: in vitro ADME
- CONDITIONS: human, plasma, read-out: human fu,plasma
Reply: number alone, nothing else.

Note to self: fraction unbound at 6 h, 5 µM recorded for Cc1c(Cl)cnc2sc3c(N4CC(C#N)C4)ncnc3c12 [Compound 15f] was 0.02

Reported fraction unbound at 6 h, 5 µM ( Cc1nc2sc3c(NC4CCC4)nncc3c2c(C)c1Cl.Cl [Compound 22j] ) = 0.005

Lookup result for Cc1c(Cl)cnc2sc3c(N4CC5(COC5)C4)ncnc3c12 [Compound 15h] ; measured fraction unbound at 6 h, 5 µM: 0.008

Input Cc1nc2sc3c(NC4CC4)nncc3c2c(C)c1Cl.Cl [Compound 22i] . Output fraction unbound at 6 h, 5 µM: 0.013
